We begin with a simple list: items and their reported relative viability.
Test system: NCI-H2009
Assay: relative viability (nuclei count vs DMSO), 5 days (fraction); higher = more cells survive
Settings: first compound 0.1 µM

{"columns": ["Molecule", "relative viability"],
 "data": [
  ["CCN(CC)CCCCNc1ncc2cc(-c3cc(OC)cc(OC)c3)c(NC(=O)NC(C)(C)C)nc2n1 + N=C(N)NC(=N)NCCc1ccccc1 [Phenformin] (partner 250 µM)", 0.451],
  ["O=c1cc(N2CCOCC2)oc2c(-c3cccc4c3sc3ccccc34)cccc12 + Cc1nc(Nc2ncc(C(=O)Nc3c(C)cccc3Cl)s2)cc(N2CCN(CCO)CC2)n1 [Dasatinib] (partner 0.075 µM)", 0.303],
  ["CCN(CC)CCCCNc1ncc2cc(-c3cc(OC)cc(OC)c3)c(NC(=O)NC(C)(C)C)nc2n1 + CC(=O)Nc1cccc(-n2c(=O)n(C3CC3)c(=O)c3c(Nc4ccc(I)cc4F)n(C)c(=O)c(C)c32)c1 [Trametinib] (partner 0.02 µM)", 0.266],
  ["CCN(CC)CCCCNc1ncc2cc(-c3cc(OC)cc(OC)c3)c(NC(=O)NC(C)(C)C)nc2n1 + CCNC(=O)c1noc(-c2cc(C(C)C)c(O)cc2O)c1-c1ccc(CN2CCOCC2)cc1 [Luminespib] (partner 0.01 µM)", 1.13]
]}

---

We begin with a simple list: items and their reported relative viability.
Tested on: NCI-H2342
Assay: relative viability (nuclei count vs DMSO), 5 days (fraction); higher = more cells survive
Settings: first compound 2.53 µM

{"columns": ["Compound", "relative viability"],
 "data": [
  ["COc1nc(C)cnc1NS(=O)(=O)c1cccnc1-c1ccc(-c2nnco2)cc1 [Zibotentan] + Cc1nc(Nc2ncc(C(=O)Nc3c(C)cccc3Cl)s2)cc(N2CCN(CCO)CC2)n1 [Dasatinib] (partner 0.075 µM)", 0.314],
  ["COc1nc(C)cnc1NS(=O)(=O)c1cccnc1-c1ccc(-c2nnco2)cc1 [Zibotentan] + Nc1nc2[nH]cc(CCc3ccc(C(=O)N[C@@H](CCC(=O)O)C(=O)O)cc3)c2c(=O)[nH]1 [Pemetrexed] (partner 0.2 µM)", 0.797]
]}

---

We begin with a simple list: items and their reported relative viability.
System: RERF-LC-KJ
Assay: relative viability (nuclei count vs DMSO), 5 days (fraction); higher = more cells survive
Settings: first compound 0.03162 µM

{"columns": ["Compound", "relative viability"],
 "data": [
  ["O=c1cc(N2CCOCC2)oc2c(-c3cccc4c3sc3ccccc34)cccc12 + COc1cccc2cc(-c3nc([C@H]4CC[C@H](C(=O)O)CC4)n4ncnc(N)c34)[nH]c12 [OSI-027] (partner 0.5 µM)", 0.635],
  ["O=c1cc(N2CCOCC2)oc2c(-c3cccc4c3sc3ccccc34)cccc12 + Nc1nc2[nH]cc(CCc3ccc(C(=O)N[C@@H](CCC(=O)O)C(=O)O)cc3)c2c(=O)[nH]1 [Pemetrexed] (partner 0.2 µM)", 0.478],
  ["CCN(CC)CCCCNc1ncc2cc(-c3cc(OC)cc(OC)c3)c(NC(=O)NC(C)(C)C)nc2n1 + CC1(C)CCC(c2ccc(Cl)cc2)=C(CN2CCN(c3ccc(C(=O)NS(=O)(=O)c4ccc(N[C@H](CCN5CCOCC5)CSc5ccccc5)c(S(=O)(=O)C(F)(F)F)c4)cc3)CC2)C1 [Navitoclax] (partner 0.5 µM)", 0.851],
  ["O=c1cc(N2CCOCC2)oc2c(-c3cccc4c3sc3ccccc34)cccc12 + Cc1cc(Nc2cc(N3CCN(C)CC3)nc(Sc3ccc(NC(=O)C4CC4)cc3)n2)n[nH]1 [Tozasertib] (partner 0.1 µM)", 0.576]
]}
